molecular target: Regulator of G-protein signaling 8 (Homo sapiens) (UniProt P57771); test: RGS8-Galphao interaction modulators, dose response, biochemical, multiplex bead flow cytometry (AID 1869); details: bead-based flow cytometry RGS8-Galphao binding
Sequence (P57771 whole entry, looked up): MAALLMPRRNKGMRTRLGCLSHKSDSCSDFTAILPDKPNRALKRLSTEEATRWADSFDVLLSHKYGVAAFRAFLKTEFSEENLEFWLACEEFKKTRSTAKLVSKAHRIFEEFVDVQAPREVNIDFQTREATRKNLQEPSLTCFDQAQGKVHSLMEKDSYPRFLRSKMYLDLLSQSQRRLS
Active and inactive are the calls of the source. No rule for the calls is given here.
Outcome codes: Yes = active, No = inactive

compound: O=c1[nH]c(=S)n(Cc2ccco2)c(O)c1C=NCc1cccs1
cat: No
//
compound: O=C1CCCC2=C1C(c1cccs1)n1ncnc1N2 (stereo not given)
cat: No
//
compound: CN(C)[C@@H]1C(=O)C(C(=O)NCN2CCCC2)=C(O)[C@@]2(O)C(=O)C3=C(O)c4c(O)cccc4[C@@](C)(O)C3CC12 (stereo not given in full)
cat: Yes
//
compound: CCOC(=O)C1=C(C)NC(C)=C(C(=O)OCCNC(=O)c2cccnc2)C1c1cccc([N+](=O)[O-])c1 (stereo not given)
cat: No
//
compound: CC(C)Sc1nc2ccc(N3C(=O)C4CCCCC4C3=O)cc2s1 (stereo not given)
cat: No

----------
molecular target: Regulator of G-protein signaling 8 (Homo sapiens) (UniProt P57771); test: RGS8-Galphao interaction modulators, dose response, biochemical, multiplex bead flow cytometry (AID 1869); details: bead-based flow cytometry RGS8-Galphao binding; measured here: Ki for RGS8-Galphao binding
pKi: −log10 of the molar value.
Overview of reported pKi across a group of compounds:
attribute_measured: pKi

compound: O=c1c2ccccc2sn1-c1ccc(S(=O)(=O)N2CCCC2)cc1
assay_result: 5.06
//
compound: CC1(C)OC(=O)C(=Cc2ccc(-c3ccc(S(N)(=O)=O)cc3)o2)C(=O)O1
assay_result: 5.40
//
compound: COCCCNC(=O)c1ccc2c3c(onc13)-c1ccccc1C2=O
assay_result: 5.45
//
compound: Cc1ccccc1-n1sc2cc(F)ccc2c1=O
assay_result: 5.02
//
compound: CN(C)[C@@H]1C(=O)C(C(=O)NCN2CCCC2)=C(O)[C@@]2(O)C(=O)C3=C(O)c4c(O)cccc4[C@@](C)(O)C3CC12 (stereo not given in full)
assay_result: 5.23

----------
biological target: UniProt:P57771; assay: RGS8-Galphao interaction modulators, dose response, biochemical, multiplex bead flow cytometry (AID 1869); conditions: bead-based flow cytometry RGS8-Galphao binding; measured here: Ki for RGS8-Galphao binding
pKi: −log10 of the molar value.
Binary call on pKi: rule met from 5 upward, rule not met beneath that.

structure: COc1ccccc1-n1c(-c2cc(-c3ccco3)[nH]n2)n[nH]c1=S
cat: rule met
//
structure: CCN=c1scc(C)n1/N=C/c1ccc(O)c(O)c1O
cat: rule not met
//
structure: O=C(O[C@@H]1OC2COC(=O)c3cc(O)c(O)c(O)c3-c3c(cc(O)c(O)c3O)C(=O)O[C@@H]([C@H]1O)[C@@H]2O)c1cc(O)c(O)c(O)c1
cat: rule met
//
structure: NS(=O)(=O)c1ccc(N/N=C/c2ccc(O)c(O)c2O)c([N+](=O)[O-])c1
cat: rule met

----------
Overview of reported Ki across a group of molecules:
molecular target: UniProt:P57771; experiment: RGS8-Galphao interaction modulators, dose response, biochemical, multiplex bead flow cytometry (AID 1869); details: bead-based flow cytometry RGS8-Galphao binding; measured here: Ki for RGS8-Galphao binding
attribute_measured: Ki (µM)

molecule: Cc1ccc(-n2sc3ccccc3c2=O)cc1S(=O)(=O)N1CCCCC1
value_unit: µM
assay_result: 9.95
//
molecule: O=C(OCC1O[C@@H](OC(=O)c2cc(O)c(O)c(O)c2)[C@@H](OC(=O)c2cc(O)c(O)c(O)c2)[C@@H](OC(=O)c2cc(O)c(O)c(O)c2)[C@@H]1OC(=O)c1cc(O)c(O)c(O)c1)c1cc(O)c(O)c(O)c1 (stereo partly drawn)
value_unit: µM
assay_result: 1.05
//
molecule: CCN(CC)S(=O)(=O)c1cccc(C(=O)N/N=C/c2ccc(O)c(O)c2O)c1
value_unit: µM
assay_result: 3.77
//
molecule: Nc1cccnc1Sc1ccc([N+](=O)[O-])cn1
value_unit: µM
assay_result: 13.7
//
molecule: O=C1CCC(=O)N(O)CCCCCNC(=O)CCC(=O)N(O)CCCCCNC(=O)CCC(=O)N(O)CCCCCN1
value_unit: µM
assay_result: 1.7
//
molecule: O=c1c2ccccc2sn1-c1cc(S(=O)(=O)N2CCOCC2)ccc1N1CCOCC1
value_unit: µM
assay_result: 4.21
//
molecule: CCOC(=O)C1CCCN(C(=O)Cn2sc3nc(C)cc(C)c3c2=O)C1 (stereo not drawn)
value_unit: µM
assay_result: 4.49
//
molecule: CCOC(=O)c1sc(NC(=O)CSc2nnc(Cc3ccccc3)o2)c(C#N)c1C
value_unit: µM
assay_result: 5.55
//
molecule: O=C(O)C[C@@H]1C(=O)O[C@@H]2C(COC(=O)c3cc(O)c(O)c(O)c3)O[C@@H](OC(=O)c3cc(O)c(O)c(O)c3)[C@@H](OC(=O)c3cc(O)c(O)c4c3[C@H]1[C@H](O)C(=O)O4)[C@H]2OC(=O)c1cc(O)c(O)c(O)c1 (stereo partly drawn)
value_unit: µM
assay_result: 0.68
//
molecule: Cc1cc(C)c2c(=O)n(CC(=O)Nc3cccc(F)c3)sc2n1
value_unit: µM
assay_result: 6.53
//
molecule: Cc1cc(C)c2c(=O)n(CC(=O)Nc3ccc(Cl)cc3)sc2n1
value_unit: µM
assay_result: 5.27
//
molecule: O=c1c2ccccc2sn1-c1ccccc1
value_unit: µM
assay_result: 5.06
//
molecule: Cc1ccc(NC(=O)Cn2sc3nc(C)cc(C)c3c2=O)c(Cl)c1
value_unit: µM
assay_result: 11.7
//
molecule: CN=c1scc(C)n1/N=C/c1ccc(O)c(O)c1O
value_unit: µM
assay_result: 7.21
//
molecule: O=[N+]([O-])c1ccc(Sc2cccc[n+]2[O-])c2nonc12
value_unit: µM
assay_result: 2.54
//
molecule: O=C(NCCCN1CCOCC1)c1sc2cc([N+](=O)[O-])ccc2c1Cl
value_unit: µM
assay_result: 2.16
//
molecule: CN1CCN(C2=C(Cl)C(=O)C(c3cnc(N4CCCCC4)s3)=C(Cl)C2=O)CC1
value_unit: µM
assay_result: 0.11
//
molecule: CCN1/C(=C/C=C/C=C/c2sc3ccccc3[n+]2CC)Sc2ccccc21
value_unit: µM
assay_result: 4.71
